Target: T1, Recombinant human Dkk-1 (R&D Systems cat no. 1096-DK/CF), 10xHis tag at the C terminal (human, UniProt O94907 32-266)
T1 construct: the actual N-terminus of the purified protein is marked in bold italic after residue 30, but the mark is an image lost in the text; also called rhuDkk-1; hDkk-1
T1 sequence: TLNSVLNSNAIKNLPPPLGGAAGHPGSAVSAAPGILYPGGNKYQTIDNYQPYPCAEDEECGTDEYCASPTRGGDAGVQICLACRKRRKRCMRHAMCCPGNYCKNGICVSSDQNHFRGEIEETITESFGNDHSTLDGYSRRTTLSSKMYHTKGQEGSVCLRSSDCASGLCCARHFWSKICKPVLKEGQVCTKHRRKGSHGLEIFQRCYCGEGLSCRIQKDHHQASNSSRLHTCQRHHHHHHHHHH
Test: theoretical: koff / estimated kon 1e6 1/Ms (SPR screening 37C)
Kd strictly less than 6 nM = Met. Otherwise Not met.

-- ask For SL3.3C10 (Fab, V domains shown, tested as Fab (E. coli lysate, screening mode); human kappa CL and IgG2 CH1 not included here) VH: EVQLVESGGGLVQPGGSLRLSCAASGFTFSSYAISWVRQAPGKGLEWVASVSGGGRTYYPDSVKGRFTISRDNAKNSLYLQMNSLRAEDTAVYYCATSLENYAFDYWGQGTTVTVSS VL: EIVLTQSPATLSLSPGERATLSCRASESVDDFGISFMNWYQQKPGQAPRLLIYAASKQGSGIPARFSGSGSGTDFTLTISSLEPEDFAVYYCQQSKEVWPTFGGGTKVEIK , is the recorded Kd below the cut-off of 6 nM?
-- reply Not met

-- ask For L2.P4.C10 (Fab, V domains shown, tested as Fab (E. coli lysate, screening mode); human kappa CL and IgG2 CH1 not included here) VH: EVQLVESGGGLVQPGGSLRLSCAASGFTFSSYAISWVRQAPGKGLEWVASVSGWGDTYYPDSVKGRFTISRDNAKNSLYLQMNSLRAEDTAVYYCATSLKNYAFDYWGQGTTVTVSS VL: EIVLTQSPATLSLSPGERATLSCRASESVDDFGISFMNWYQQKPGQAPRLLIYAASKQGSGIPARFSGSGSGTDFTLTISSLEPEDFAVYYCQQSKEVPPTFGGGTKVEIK , is the recorded Kd below the cut-off of 6 nM?
-- reply Met

-- ask For L3.4E10 (Fab, V domains shown, tested as Fab (E. coli lysate, screening mode); human kappa CL and IgG2 CH1 not included here) VH: EVQLVESGGGLVQPGGSLRLSCAASGFTFSSYAISWVRQAPGKGLEWVASVSGWGHTYYPDSVKGRFTISRDNAKNSLYLQMNSLRAEDTAVYYCATSLQNYAFDYWGQGTTVTVSS VL: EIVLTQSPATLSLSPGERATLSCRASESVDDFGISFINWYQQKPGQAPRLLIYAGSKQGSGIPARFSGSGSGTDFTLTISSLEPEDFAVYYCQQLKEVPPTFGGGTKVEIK , is the recorded Kd below the cut-off of 6 nM?
-- reply Met

-- ask For SL3.4F1 (Fab, V domains shown, tested as Fab (E. coli lysate, screening mode); human kappa CL and IgG2 CH1 not included here) VH: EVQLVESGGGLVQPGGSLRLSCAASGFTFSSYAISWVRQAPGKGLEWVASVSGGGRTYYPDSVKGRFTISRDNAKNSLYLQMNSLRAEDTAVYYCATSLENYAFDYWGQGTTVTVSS VL: EIVLTQSPATLSLSPGERATLSCRASESVDDFGISFMNWYQQKPGQAPRLLIYAASKQGSGIPARFSGSGSGTDFTLTISSLEPEDFAVYYCQQSKEVPSTFGGGTKVEIK , is the recorded Kd below the cut-off of 6 nM?
-- reply Not met

-- ask For L2.1E5 (Fab, V domains shown, tested as Fab (E. coli lysate, screening mode); human kappa CL and IgG2 CH1 not included here; printed changes identical to clone 24) VH: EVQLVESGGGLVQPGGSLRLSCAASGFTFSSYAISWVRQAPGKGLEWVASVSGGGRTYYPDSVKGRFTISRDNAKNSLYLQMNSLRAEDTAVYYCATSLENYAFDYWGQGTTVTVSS VL: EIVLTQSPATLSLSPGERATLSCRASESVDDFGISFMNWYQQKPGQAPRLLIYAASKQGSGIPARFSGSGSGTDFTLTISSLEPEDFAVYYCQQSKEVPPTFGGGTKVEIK , is the recorded Kd below the cut-off of 6 nM?
-- reply Met

-- ask For L2.1B11 (Fab, V domains shown, tested as Fab (E. coli lysate, screening mode); human kappa CL and IgG2 CH1 not included here) VH: EVQLVESGGGLVQPGGSLRLSCAASGFTFSSYAISWVRQAPGKGLEWVASVSGWFDTYYPDSVKGRFTISRDNAKNSLYLQMNSLRAEDTAVYYCATSLRNYAFDYWGQGTTVTVSS VL: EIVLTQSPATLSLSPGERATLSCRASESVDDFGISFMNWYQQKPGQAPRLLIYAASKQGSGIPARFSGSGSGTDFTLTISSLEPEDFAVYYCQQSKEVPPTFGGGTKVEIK , is the recorded Kd below the cut-off of 6 nM?
-- reply Met

-- ask For L3.4E7 (Fab, V domains shown, tested as Fab (E. coli lysate, screening mode); human kappa CL and IgG2 CH1 not included here; printed changes identical to L3.4H2) VH: EVQLVESGGGLVQPGGSLRLSCAASGFTFSSYAISWVRQAPGKGLEWVASVSGWGDTYYPDSVKGRFTISRDNAKNSLYLQMNSLRAEDTAVYYCATSLQNYAFDYWGQGTTVTVSS VL: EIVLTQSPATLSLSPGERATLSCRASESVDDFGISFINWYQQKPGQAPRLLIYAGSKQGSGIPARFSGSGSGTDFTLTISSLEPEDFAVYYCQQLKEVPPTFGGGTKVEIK , is the recorded Kd below the cut-off of 6 nM?
-- reply Met

-- ask For L2.1B5 (Fab, V domains shown, tested as Fab (E. coli lysate, screening mode); human kappa CL and IgG2 CH1 not included here) VH: EVQLVESGGGLVQPGGSLRLSCAASGFTFSSYAISWVRQAPGKGLEWVASVSGWGDTYYPDSVKGRFTISRDNAKNSLYLQMNSLRAEDTAVYYCATSLENYAFDYWGQGTTVTVSS VL: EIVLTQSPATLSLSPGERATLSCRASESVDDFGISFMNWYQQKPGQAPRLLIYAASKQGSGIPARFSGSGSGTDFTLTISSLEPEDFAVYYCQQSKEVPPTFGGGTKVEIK , is the recorded Kd below the cut-off of 6 nM?
-- reply Met

-- ask For 2G9.33L (Fab, V domains shown, tested as Fab (E. coli lysate, screening mode); human kappa CL and IgG2 CH1 not included here) VH: EVQLVESGGGLVQPGGSLRLSCAASGFTFSSYAISWVRQAPGKGLEWVASVSGWGDTYYPDSVKGRFTISRDNAKNSLYLQMNSLRAEDTAVYYCATSLRNYAFDYWGQGTTVTVSS VL: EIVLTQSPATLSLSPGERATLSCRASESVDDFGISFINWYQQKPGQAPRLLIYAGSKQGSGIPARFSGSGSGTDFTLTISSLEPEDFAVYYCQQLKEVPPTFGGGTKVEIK , is the recorded Kd below the cut-off of 6 nM?
-- reply Met

-- ask For SL3.3B11 (Fab, V domains shown, tested as Fab (E. coli lysate, screening mode); human kappa CL and IgG2 CH1 not included here) VH: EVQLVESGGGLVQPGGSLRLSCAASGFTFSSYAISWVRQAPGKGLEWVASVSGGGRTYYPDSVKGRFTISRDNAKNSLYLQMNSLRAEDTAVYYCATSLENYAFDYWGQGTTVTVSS VL: EIVLTQSPATLSLSPGERATLSCRASESVDDFGISFMNWYQQKPGQAPRLLIYAASKQGSGIPARFSGSGSGTDFTLTISSLEPEDFAVYYCQQAKEVPPTFGGGTKVEIK , is the recorded Kd below the cut-off of 6 nM?
-- reply Not met
